target desc: S1P1 (Homo sapiens, UniProt P21453)
Sequence (P21453 whole entry): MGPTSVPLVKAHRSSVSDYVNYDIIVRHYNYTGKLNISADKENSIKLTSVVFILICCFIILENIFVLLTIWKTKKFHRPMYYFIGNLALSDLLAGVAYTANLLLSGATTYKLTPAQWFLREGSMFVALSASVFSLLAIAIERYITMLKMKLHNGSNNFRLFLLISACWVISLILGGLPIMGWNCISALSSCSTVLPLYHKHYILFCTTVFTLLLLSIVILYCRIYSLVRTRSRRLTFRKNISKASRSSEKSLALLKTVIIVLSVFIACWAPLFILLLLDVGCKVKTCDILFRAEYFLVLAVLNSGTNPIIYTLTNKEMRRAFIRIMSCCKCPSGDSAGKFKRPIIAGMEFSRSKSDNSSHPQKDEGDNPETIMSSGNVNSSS
assay procedure: S1P1 internalization assay in S1P1-U2OS cells (cell imaging)
condition details: U2OS cells expressing S1P1-EGFP, 384-well format
Counter-ions that a name gives are not always drawn.
// values below are reported pEC50
Remember the convention: pEC50 equals -log10 of concentration in molar.

Previously resolved entries follow.
- compound: "Cc1ccccc1-c1ccc(-c2nc(-c3ccc(C(CO)NCC(=O)O)cc3)no2)cc1C(F)(F)F (stereo not shown) [Example 52]"
  pEC50: 7.99
- compound: "COCc1cc(-c2nc(-c3ccc(CN(C)[C@@H](C)C(=O)O)c(F)c3)no2)ccc1-c1ccccc1C [Example 44, hydrochloride salt]"
  pEC50: 8.20
- compound: "Cc1ccccc1-c1ccc(-c2nc(-c3cc(F)cc(CNC(C)(C)C(=O)O)c3)no2)cc1C(F)(F)F [Example 46, hydrochloride salt]"
  pEC50: 8.03

Requested read-out: pEC50. Entry: CCC(NCc1ccc(-c2noc(-c3ccc(-c4ccccc4C)c(C(F)(F)F)c3)n2)cc1F)C(=O)O (stereo not shown) [Example 41, hydrochloride salt]
7.89

Numbers sourced from patent US9029405B2.
